# Test system: anti-CD28 scFv (SEQ ID NO: 9)
# methodDescription: Octet bio-layer interferometry kinetic binding of anti-CD28 scFv to peptides
# Parameters: species or system human
# measurementParameters: Octet RED96; biotinylated peptide loaded on streptavidin biosensor; anti-CD28 scFv in solution; 1:1 binding model
propertyName: kdis (s⁻¹)
Express it in s⁻¹; write the number only.

// query kdis of CSCC[C@H](N)C(=O)N[C@@H](CC(=O)O)C(=O)N[C@@H](Cc1c[nH]c2ccccc12)C(=O)N[C@H]1CSSC[C@@H](C(=O)N[C@@H](Cc2ccccc2)C(=O)N[C@@H](C)C(=O)O)NC(=O)[C@H](C(C)C)NC(=O)[C@H](Cc2c[nH]cn2)NC(=O)[C@H](Cc2c[nH]c3ccccc23)NC(=O)[C@H](CC(C)C)NC(=O)[C@H](Cc2ccc(O)cc2)NC(=O)[C@H](CCCNC(=N)N)NC(=O)[C@@H]2CCCN2C1=O [Peptide-48] on anti-CD28 scFv (SEQ ID NO: 9)?
// result 0.00187
